Values were extracted from paper PMC4949556.

- Test system: BCRP (Homo sapiens, UniProt Q9UNQ0)
- Construct: expressed in transfected cells; host or cells: PLB985 human myeloid leukemia cells stably expressing BCRP (gift of B. Sarkadi and K. Nemet, Budapest)
- Sequence (Q9UNQ0 whole entry): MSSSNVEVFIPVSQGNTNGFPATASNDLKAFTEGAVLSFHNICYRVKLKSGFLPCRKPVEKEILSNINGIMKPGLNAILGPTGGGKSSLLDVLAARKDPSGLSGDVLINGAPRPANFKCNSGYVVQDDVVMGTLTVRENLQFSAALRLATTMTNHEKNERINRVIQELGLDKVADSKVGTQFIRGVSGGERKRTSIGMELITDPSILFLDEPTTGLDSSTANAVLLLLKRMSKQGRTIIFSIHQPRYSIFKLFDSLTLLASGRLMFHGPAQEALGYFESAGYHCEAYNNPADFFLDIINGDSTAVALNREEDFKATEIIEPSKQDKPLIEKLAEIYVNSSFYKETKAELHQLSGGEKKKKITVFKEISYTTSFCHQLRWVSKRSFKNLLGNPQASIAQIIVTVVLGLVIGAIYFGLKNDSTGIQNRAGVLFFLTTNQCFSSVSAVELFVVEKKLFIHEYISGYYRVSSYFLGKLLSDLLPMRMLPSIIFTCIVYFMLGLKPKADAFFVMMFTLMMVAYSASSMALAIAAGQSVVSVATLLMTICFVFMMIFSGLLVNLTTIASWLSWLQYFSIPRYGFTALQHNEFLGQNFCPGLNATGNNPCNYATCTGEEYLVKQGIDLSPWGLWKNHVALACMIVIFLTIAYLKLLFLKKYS
- Run description: BCRP inhibition: steady-state mitoxantrone accumulation in BCRP-expressing PLB985 cells (flow cytometry)
- Format: cell-based
- Experimental conditions: Hill coefficient of IC50 measurement, mean ± SD of n experiments
- Protocol: P‐gp and BCRP inhibitory activity was assessed by implementing an intracellular accumulation assay of daunorubicin or mitoxantrone in cells overexpressing P‐gp or BCRP, respectively. In a first run, the effect of compounds 5, 6, 10, 11, and 16 (Figure 2) at 100 μM final concentration was tested (Figure 3). […]
Observed property: Hill coefficient BCRP

Enter reported Hill coefficient BCRP observed with BCRP (Homo sapiens, UniProt Q9UNQ0) for CC(NCC(O)COc1ccccc1C(=O)CCc1ccccc1)C(F)F (stereo not shown)
1.0±0.2

Could you do the same for O=C(CCc1ccccc1)c1ccccc1OCC(O)CNC(=O)C1CCCN1 (stereo not shown) , please?
1.4±0.3

Okay, and COc1ccc(C(=O)CCc2ccccc2)c(OCC(O)CN2CC(=O)N3CCCC3C2=O)c1 (stereo not shown) ?
1.1±0.2

Can you check COc1ccc(C(=O)CCc2ccccc2)c(OCC(O)CNC(=O)C2CCCN2)c1 (stereo not shown) next?
1.4±0.1

---
Notebook entry, BCRP (Homo sapiens, UniProt Q9UNQ0) assay: Hill coefficient BCRP of COc1ccc(C(=O)CCc2ccccc2)c(OCCN2CC(=O)N3CCCC3C2=O)c1 (stereo not shown) = ?
1.1±0.2

Would you mind doing O=C(CCc1ccccc1)c1ccccc1OCCN1CC(=O)N2CCCC2C1=O (stereo not shown) as well?
1.0±0.0

What do you have for O=C(CCc1ccccc1)c1ccccc1OCC(O)CN1CC(=O)N2CCCC2C1=O (stereo not shown) ?
0.9±0.1

Moving on to the next compound: CC(CF)NCC(O)COc1ccccc1C(=O)CCc1ccccc1 (stereo not shown)
1.6±0.2

And the next one, O=C(CCc1ccccc1)c1ccccc1OCCNC(=O)C1CCCN1 (stereo not shown) ?
1.3±0.2

Now consider COc1ccc(C(=O)CCc2ccccc2)c(OCCNC(=O)C2CCCN2)c1 (stereo not shown) .
1.0±0.1

---

Listing of entries alongside the reported selectivity ratio.
- Test system: P-gp / BCRP (Homo sapiens, UniProt Q9UNQ0)
- Construct: expressed in transfected cells; host or cells: PLB985 human myeloid leukemia cells stably expressing BCRP (gift of B. Sarkadi and K. Nemet, Budapest)
- Run description: BCRP inhibition: steady-state mitoxantrone accumulation in BCRP-expressing PLB985 cells (flow cytometry)
- Assay type: cell-based
- Experimental conditions: human, pH 7.4, probe daunorubicin (3 µM) for P-gp; mitoxantrone (7 µM) for BCRP; IC50 P-gp / IC50 BCRP; read-out: selectivity index (SI) P-gp/BCRP
Please give the numeric answer without any surrounding text.

Some compounds with recorded selectivity ratio:
Form: Entry = O=C(CCc1ccccc1)c1ccccc1OCC(O)CN1CC(=O)N2CCCC2C1=O (stereo not shown) | System = P-gp / BCRP (Homo sapiens, UniProt Q9UNQ0) | selectivity ratio = ____
0.27

Please give the result for O=C(CCc1ccccc1)c1ccccc1OCC(O)CNC(=O)C1CCCN1 (stereo not shown) too.
0.13

Entry to check: COc1ccc(C(=O)CCc2ccccc2)c(OCCN2CC(=O)N3CCCC3C2=O)c1 (stereo not shown)
2.7

Now, please, on to the next compound.
For the record COc1ccc(C(=O)CCc2ccccc2)c(OCC(O)CN2CC(=O)N3CCCC3C2=O)c1 (stereo not shown) , what value of selectivity ratio is listed for P-gp / BCRP (Homo sapiens, UniProt Q9UNQ0)?
2.82
